Tested on: EKVX NSCLC
experimental.details: NCI-60 one-dose screen, 48 h (100 = growth as untreated, 0 = no growth, -100 = all killed)
condition.context: 10 µM unless noted
Compounds without any hit were thinned out: in the full panel of roughly 83,000, 20% have a hit.
attribute.measured: growth (%)
Answers are plain numbers, in %.

Illustrative cases are given below, each with its answer.
NNc1ncnc2cccc(Cl)c12 : 90.8
O=c1[nH]c(=O)c2[nH]c(=O)[nH]c2[nH]1 : 88.6
Cc1cc(Cl)nc(Nc2ccccc2)n1 : 93.8
NCCSSC/C=C\CSSCCN : 123
Cc1cc2ccccc2c2cc3ccccc3cc12 : 82.7

Would you mind listing growth for each of the following compounds?
1. O=C(Nc1ccccc1)OCC(CN1CCCCC1)OC(=O)Nc1ccccc1 (stereo unspecified)
2. COC(=O)C(Cc1cn(C(C)=O)c2ccccc12)P(=O)(OC)OC (stereo unspecified)

1: 82.5; 2: 90.6

Hello, I would appreciate it if you could give growth for each entry below.
1. CCN(C)c1ccccc1
2. CCC/C(=N/NC(N)=O)c1ccco1
3. COc1cc(Cl)ccc1C

[87.5, 89.7, 109]

Please state, for each entry, its recorded growth.
1. Nc1ccccc1SC1CC(=O)N(c2ccc(I)cc2)C1=O (stereo unspecified)
2. COc1ccc(CCO)cc1
3. O=C1c2ccccc2CN1c1ccccc1

1: 90.6; 2: 107; 3: 113

---

System: HOP-92 NSCLC
experimental.details: NCI-60 one-dose screen, 48 h (100 = growth as untreated, 0 = no growth, -100 = all killed)
condition.context: 10 µM unless noted
About 83,000 compounds went through this panel and 20% of them were active in at least one assay; those are over-represented in the sample as a whole. Active and inactive are the calls of the source. How the source made its calls: active means growth percent below 10; inactive means the rest.
Kindly supply the reported growth values for the records listed here.

CC1(C)OC(=O)C(=Cc2ccc(C#N)cc2)C(=O)O1 : 87.9% (inactive)
Cc1c(O)nc(N)[nH]c1=O : 108% (inactive)
COC(=O)c1nc(N)nc(C(=O)OC)c1C(=O)c1ccc(F)cc1 : 101% (inactive)
COC(=O)c1cc(C(=O)OC)cc([N+](=O)[O-])c1 : 105% (inactive)
Nc1ccc(Cl)c(S(=O)(=O)O)c1 : 106% (inactive)
ON=C(C1CCCCC1)C1CCCCC1 : 85.7% (inactive)
O=C(c1ccccc1)C1(Br)CCCCC1 : 88.1% (inactive)
CC(C)(C)OC(=O)c1ccc(NCc2cc(O)ccc2O)cc1 : 17.5% (inactive)

I'm hoping you can list growth for every compound here, please.
1. CCOP(C)(=O)/C(Cc1ccc(OC)c(OC)c1)=N\O (stereo not given)
2. OCc1ccccc1F
3. CCN(CC)C(=S)SCCO
4. Clc1ccc2sc(-c3ccccc3)nc2c1
5. Cc1ccc(S(=O)(=O)n2ccnc2)cc1
6. Nc1ccccc1SC1CC(=O)N(c2ccc(I)cc2)C1=O (stereo not given)

["100% (inactive)", "106% (inactive)", "109% (inactive)", "105% (inactive)", "97% (inactive)", "100% (inactive)"]

Give me growth for each of these compounds, listed below.
1. O=C(c1ccc(Cl)cc1)C1C(c2ccccc2)C1[N+](=O)[O-] (stereo not given)
2. CCC/C(=N/NC(N)=O)c1ccco1
3. CC(=O)c1cc2ccccc2o1
4. CCOP(=O)(OCC)/C(C#N)=C/c1c(C)[nH]c2ccccc12
5. O=C1c2ccccc2C(c2ccccc2)C1c1ccccc1 (stereo not given)

1. 80.9% (inactive)
2. 82.7% (inactive)
3. 106% (inactive)
4. 84% (inactive)
5. 80.2% (inactive)

Fill in growth for each of the 4 compounds listed.
1. O=C(O)C#Cc1ccc(Cl)cc1
2. COc1cc2c(cc1O)C(=O)CCCC2
3. CCOC(=O)c1ccncc1
4. O=c1[nH]nnc2cc(Cl)ccc12

97.8% (inactive)
82.9% (inactive)
108% (inactive)
109% (inactive)

Each compound below has a reported value. Please supply its growth.
1. CCC(C)(O)CCC(C)(O)CC (stereo not given)
2. COc1ccc(CCO)cc1
3. Cc1ccc([N+](=O)[O-])cc1Br
4. S=c1nn[nH]n1C1CCCCC1

["104% (inactive)", "86.4% (inactive)", "106% (inactive)", "93.2% (inactive)"]

---

Test system: KM12 colon
experimental.details: NCI-60 one-dose screen, 48 h (100 = growth as untreated, 0 = no growth, -100 = all killed)
condition.context: 10 µM unless noted
Description: Growth inhibition of the KM12 human tumor cell line is measured as a screen for anti-cancer activity. Cells are grown in 96 well plates and exposed to the test compound for 48 hours. Compounds are tested at a single concentration, which is 10^-5 M for most compounds. The reported endpoint is percent growth (GI% or GIPRCNT), where numbers from 0 - 100% represent growth inhibition, and numbers from -100% - 0 represent cell death. For example, a value of 40 represents 60% growth inhibition. […]
Compounds without any hit were thinned out: in the full panel of roughly 83,000, 20% have a hit.
Exercise: state measured growth for each of the compounds provided.
Numbers only, in %.

O=C1C=CC(=O)N1Cc1ccco1 : 103
CCc1ccccc1-n1[nH]c(C)c(C=N)c1=O : 102
CCOC(=O)CN1CCC(C(=O)OCC)CC1 : 109
Clc1ccc2c(c1)N(C1CCCN(Cc3ccccc3)C1)c1ccccc1S2 (centres undefined) : 33.7
Oc1ccc(O)c(-c2ccccc2)c1 : 40.8
CCOC(=O)c1ccc(N2C(=O)C(Cl)(c3ccccc3)C2c2ccco2)cc1 (centres undefined) : 83.5

Would you mind listing growth for each of the following compounds?
1. O=C1c2ccccc2CN1c1ccccc1
2. Cc1ccc(NC(=S)N/C=C(\c2ccccc2)S(=O)Cc2ccccc2)c(C)c1 (centres undefined)
3. Cc1cc(-c2ccc(N=Nc3c(C)nn(-c4ccc(S(=O)(=O)O)cc4)c3O)c(C)c2)ccc1N=Nc1ccc(O)c(C(=O)O)c1
4. CC1=CC(=O)c2cccc(NC3=NCCO3)c21

[101, 102, 96.1, 97.7]

---

System: CAKI-1 renal
experimental.details: NCI-60 one-dose screen, 48 h
condition.context: 10 µM unless noted
This is part of a sample that, as a whole, favours compounds with a hit. Of some 83,000 tested, about 20% had one in any assay. Active and inactive are the calls of the source. The calls were made as follows: active = growth percent below 10; inactive = the rest.
Respond with a class label; see Y (active), N (inactive)

COc1ccc2oc3c(ccc[n+]3C)c(=O)c2c1 : N
CC(C)(C)OC(=O)CC1(O)CCCCC1 : N
CC(C)(C)OC(=O)NCCc1ccc(N)cc1 : N
COCCNC(C)=O : N
O=C(c1ccccc1)C1(Br)CCCCC1 : N

Dear all, I need the recorded test outcome for Nc1ccc(Cl)c(S(=O)(=O)O)c1 , thank you.
N

Name the outcome recorded for O=C(N=C1C(=O)C2(CCCCC2)C2(N=C(c3ccccc3)OC2=O)C12CCCCC2)c1ccccc1 (stereo not drawn) in the assay.
N

Per the records of this test, what outcome belongs to CC(C)(C)C1CCC(=NO)CC1 (stereo not drawn) ?
N

Called result for CCCCCCCCCCCCCCCCC(=O)O
N

Which outcome was entered for the compound Nc1c(Cl)cc2c(c1Br)C(=O)c1ccccc1C2=O in this test?
N

Which result was noted for this compound in the test: COc1ccc(S(=O)(=O)c2ccc(F)cc2)cc1
N

Per the assay record, what outcome was assigned to O=C(O)COc1ccccc1F ?
N

Test call, this compound: O=C1C2=C(Nc3cc(Cl)ccc3N2)OC1c1c[nH]c2ccc(COc3ccccc3)cc12 (stereo not drawn)
N

Test call, this compound: CCCCC/C(C)=N\NC(N)=S
N

---

Tested on: SN12C renal
experimental.details: NCI-60 one-dose screen, 48 h
condition.context: 10 µM unless noted
The panel holds about 83,000 compounds, 20% with a hit somewhere; the sample as a whole holds those more often. Calls of active or inactive are those of the source. How the source made its calls: active means growth percent below 10; inactive means the rest.
Response enum: active, inactive

CCOC(=O)c1ccc(C(=N)N)cc1 : inactive

We next turn to a different molecule, shown below.
Please let me know the test result on file for COc1cc(C2c3cc4c(cc3C(OC(=O)C[n+]3ccccc3)C3COC(=O)C23)OCO4)cc(OC)c1OC (stereo not given) .
inactive

---

Tested on: HCT-15 colon
experimental.details: NCI-60 one-dose screen, 48 h (100 = growth as untreated, 0 = no growth, -100 = all killed)
condition.context: 10 µM unless noted
Method: Growth inhibition of the HCT-15 human tumor cell line is measured as a screen for anti-cancer activity. Cells are grown in 96 well plates and exposed to the test compound for 48 hours. Compounds are tested at a single concentration, which is 10^-5 M for most compounds. The reported endpoint is percent growth (GI% or GIPRCNT), where numbers from 0 - 100% represent growth inhibition, and numbers from -100% - 0 represent cell death. For example, a value of 40 represents 60% growth inhibition. […]
Compounds without any hit were thinned out: in the full panel of roughly 83,000, 20% have a hit.
Could you please report measured growth for the items listed next?
Give bare numbers, in %.

N#CC(=S)Nc1ccc(Cl)c(Cl)c1 : 13.6

Can you give me growth for all of these, one by one?
1. CCC/C(=N/NC(N)=O)c1ccco1
2. C/C(=C\c1ccccc1)C(O)C(=O)c1nc2ccc([N+](=O)[O-])cc2[nH]c1=O (stereo not drawn)
3. Cc1nc(Nc2ccc(Cl)cc2)c2cnn(-c3ccccc3)c2n1
4. CSc1nc(N)c(N)c(N)n1
5. Cc1ccc(S(=O)(=O)n2ccnc2)cc1
6. Cc1ccc(NC(=S)N/C=C(\c2ccccc2)S(=O)Cc2ccccc2)c(C)c1 (stereo not drawn)
7. Cc1cc(Cl)nc(Nc2ccccc2)n1
8. CC(C)(C)OC(=O)CC1(O)CCCCC1

[103, 100, 94.8, 111, 105, 103, 97.4, 105]

Batch request: growth for each of the following compounds.
1. OCCCc1ccccc1
2. COc1cc2c(cc1O)C(=O)CCCC2
3. Cc1cc(-c2ccc(N=Nc3c(C)nn(-c4ccc(S(=O)(=O)O)cc4)c3O)c(C)c2)ccc1N=Nc1ccc(O)c(C(=O)O)c1

1. 100
2. 95.3
3. 97.9

Okay, here is my list. What is growth for each of these?
1. CC(O)CCNC(c1ccccc1)C(O)c1ccccc1 (stereo not drawn)
2. Cc1cccc(Cl)c1N

109
109

Go through the items and report each one's growth.
1. CCCC(=O)OCC(COC(=O)CCC)OC(=O)CCC
2. NCCSSC/C=C\CSSCCN
3. OCc1cccc(F)c1
4. CCCCCCC(C)CC1=C(O)c2ccccc2C(=O)C1=O (stereo not drawn)
5. Cc1cnc(N)s1
6. CCN(CC)C(=S)SCCO
7. Cc1cc2ccccc2c2cc3ccccc3cc12

1. 106
2. 102
3. 10.2
4. 28.4
5. 105
6. 107
7. 82.4

Please go through the list and note growth for each compound.
1. CCNCc1ccccc1
2. Cc1c(Cl)cc(Cl)c(N)c1Cl
3. Cc1c(O)nc(N)[nH]c1=O
4. O=[N+]([O-])c1ccc(N/N=C/C2CCCCCC2)c([N+](=O)[O-])c1
5. CCOC(C)=N

1: 112; 2: 104; 3: 106; 4: 89.1; 5: 105

For every item in the list below, what is its measured growth?
1. COc1ccc(COC=O)cc1
2. CCOC(=N)c1ccc(C(=N)OCC)cc1
3. C=CCN1C(=O)c2ccccc2C1=O
4. CCCC(=O)Oc1ccc2ccccc2c1

[107, 96.4, 109, 109]

Batch lookup, growth per entry.
1. COc1cc(Cl)ccc1C
2. O=[N+]([O-])c1ccc(N2CCN=N2)cc1
3. CCN(CC)CCO/N=C1\CC(c2ccc(OC)c(OC)c2)Oc2ccccc21 (stereo not drawn)
4. O=C1Cc2ccccc2C(=O)N1
5. O=C(N=C1C(=O)C2(CCCCC2)C2(N=C(c3ccccc3)OC2=O)C12CCCCC2)c1ccccc1 (stereo not drawn)
6. Nc1ccccc1SC1CC(=O)N(c2ccc(I)cc2)C1=O (stereo not drawn)
7. O=C(c1ccncc1)c1c(Cc2ccccc2)ccc2ccccc12
8. COCCNC(C)=O

1. 14.3
2. 80
3. 88.6
4. 99.2
5. 62.3
6. 88.5
7. 91.5
8. 100

Hi! Can you tell me growth for each of these compounds?
1. COC(=O)c1nc(N)nc(C(=O)OC)c1C(=O)c1cccc2ccccc12
2. CC(C)(C)OC(=O)NCCc1ccc(N)cc1
3. Nc1c(Cl)cc2c(c1Br)C(=O)c1ccccc1C2=O

102
111
88.9
